pKd overview
- measurement_target: SPF30 (aa 65–150) (Homo sapiens)
- Sequence (O75940 65-150): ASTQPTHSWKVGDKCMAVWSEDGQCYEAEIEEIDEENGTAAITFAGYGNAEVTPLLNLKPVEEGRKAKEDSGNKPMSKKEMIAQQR
pKd: −log10 of the molar value. Square brackets hold non-standard residues; d marks the D form. Peptide text beside a SMILES is read from it. Arg(Me2s) = CN=C(NC)NCCC[C@H](N)C(=O)O; Arg(Me) = CNC(=N)NCCC[C@H](N)C(=O)O

{"molecule": "CNC(=N)NCCC[C@H](NC(=O)CNC(=O)[C@@H](N)[C@@H](C)O)C(=O)N[C@@H](C)C(=O)N[C@@H](CCCNC(=N)N)C(=O)N[C@@H](C)C(=O)N[C@@H](CCCNC(=N)N)C(=O)N[C@@H](C)C(=O)N[C@@H](CCCNC(=N)N)C(=O)NCC(=O)N[C@@H](CCCNC(=N)N)C(=O)N[C@@H](C)C(=O)N[C@@H](CCCNC(=N)N)C(=O)NCC(=O)N[C@@H](CCC(N)=O)C(=O)N[C@@H](CCC(=O)O)C(=O)O [PIWIL1-R4me1] (H-TG[Arg(Me)]ARARARGRARGQE-OH; N-terminus and C-terminus assumed)", "measurement_target": "SPF30 (aa 65–150) (Homo sapiens)", "pKd": "< 3.30"}

Would you kindly look at the next entry?
// pKd lookup, key: CN=C(NC)NCCC[C@H](NC(=O)CNC(=O)[C@@H](N)[C@@H](C)O)C(=O)N[C@@H](C)C(=O)N[C@@H](CCCNC(=N)N)C(=O)N[C@@H](C)C(=O)N[C@@H](CCCNC(=N)N)C(=O)N[C@@H](C)C(=O)N[C@@H](CCCNC(=N)N)C(=O)NCC(=O)N[C@@H](CCCNC(=N)N)C(=O)N[C@@H](C)C(=O)N[C@@H](CCCNC(=N)N)C(=O)NCC(=O)N[C@@H](CCC(N)=O)C(=O)N[C@@H](CCC(=O)O)C(=O)O [PIWIL1-R4me2s] (H-TG[Arg(Me2s)]ARARARGRARGQE-OH)
< 3.70

----------
- measurement_target: TDRD3 (aa 520–633) (Homo sapiens, UniProt Q9H7E2)
- Construct: TDRD3 (aa 520–633); His tag (pET28-MHL) (N); made in house; host or cells: Escherichia coli BL21 (DE3)
- Sequence (Q9H7E2 520-633): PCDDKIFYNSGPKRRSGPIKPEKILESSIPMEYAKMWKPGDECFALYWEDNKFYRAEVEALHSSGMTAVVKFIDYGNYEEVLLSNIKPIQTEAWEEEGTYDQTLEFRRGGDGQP
- method: Fluorescence polarization binding assay, TDRD3 Tudor domain
- test_parameters: fluorescein-labeled peptide, 20 mM Tris pH 7.5, 50 mM NaCl, 1 mM DTT, 0.01% Triton X-100, 25°C, average of three independent measurements, NB = no detectable binding
Square brackets hold non-standard residues; d marks the D form. Peptide text beside a SMILES is read from it. Arg(Me) = CNC(=N)NCCC[C@H](N)C(=O)O
parameter: Kd

// lookup Kd for CNC(=N)NCCC[C@H](NC(=O)CNC(=O)[C@@H](N)[C@@H](C)O)C(=O)N[C@@H](C)C(=O)N[C@@H](CCCNC(=N)N)C(=O)N[C@@H](C)C(=O)N[C@@H](CCCNC(=N)N)C(=O)N[C@@H](C)C(=O)N[C@@H](CCCNC(=N)N)C(=O)NCC(=O)N[C@@H](CCCNC(=N)N)C(=O)N[C@@H](C)C(=O)N[C@@H](CCCNC(=N)N)C(=O)NCC(=O)N[C@@H](CCC(N)=O)C(=O)N[C@@H](CCC(=O)O)C(=O)O [PIWIL1-R4me1] (H-TG[Arg(Me)]ARARARGRARGQE-OH; N-terminus and C-terminus assumed)
> 500 µM

----------
- measurement_target: TDRD3 (aa 520–633) (Homo sapiens)
- Construct: TDRD3 (aa 520–633); His tag (pET28-MHL) (N); made in house; host or cells: Escherichia coli BL21 (DE3)
- method: Fluorescence polarization binding assay, TDRD3 Tudor domain
- test_parameters: fluorescein-labeled peptide, 20 mM Tris pH 7.5, 50 mM NaCl, 1 mM DTT, 0.01% Triton X-100, 25°C, average of three independent measurements, NB = no detectable binding
Square brackets hold non-standard residues; d marks the D form. Peptide text beside a SMILES is read from it. Arg(Me2a) = CN(C)C(=N)NCCC[C@H](N)C(=O)O; Arg(Me2s) = CN=C(NC)NCCC[C@H](N)C(=O)O
parameter: Kd

Consider the worked cases shown below.
{"molecule": "C[C@H](NC(=O)[C@H](CCCNC(=N)N)NC(=O)CNC(=O)[C@H](CCCNC(=N)N)NC(=O)[C@H](C)NC(=O)[C@H](CCCNC(=N)N)NC(=O)[C@H](C)NC(=O)[C@H](CCCNC(=N)N)NC(=O)[C@H](C)NC(=O)[C@H](CCCNC(=N)N(C)C)NC(=O)CNC(=O)[C@@H](N)[C@@H](C)O)C(=O)N[C@@H](CCCNC(=N)N)C(=O)NCC(=O)N[C@@H](CCC(N)=O)C(=O)N[C@@H](CCC(=O)O)C(=O)O [PIWIL1-R4me2a] (H-TG[Arg(Me2a)]ARARARGRARGQE-OH)", "reported_result": "> 150 µM"}
{"molecule": "CN=C(NC)NCCC[C@H](NC(=O)CNC(=O)[C@@H](N)[C@@H](C)O)C(=O)N[C@@H](C)C(=O)N[C@@H](CCCNC(=N)N)C(=O)N[C@@H](C)C(=O)N[C@@H](CCCNC(=N)N)C(=O)N[C@@H](C)C(=O)N[C@@H](CCCNC(=N)N)C(=O)NCC(=O)N[C@@H](CCCNC(=N)N)C(=O)N[C@@H](C)C(=O)N[C@@H](CCCNC(=N)N)C(=O)NCC(=O)N[C@@H](CCC(N)=O)C(=O)N[C@@H](CCC(=O)O)C(=O)O [PIWIL1-R4me2s] (H-TG[Arg(Me2s)]ARARARGRARGQE-OH)", "reported_result": "> 300 µM"}

Any idea what Kd was measured for CN=C(NC)NCCC[C@H](NC(=O)CNC(=O)[C@H](CCCNC(=N)N)NC(=O)CNC(=O)CN)C(=O)NCC(=O)N[C@@H](CCCNC(=N)N)C(=O)NCC(=O)O [SmD3RSDMA] (H-GGRG[Arg(Me2s)]GRG-OH) ?
> 400 µM

----------
// values below are reported Kd
- measurement_target: SPF30 (aa 65–150) (Homo sapiens)
Square brackets hold non-standard residues; d marks the D form. Peptide text beside a SMILES is read from it. Arg(Me2a) = CN(C)C(=N)NCCC[C@H](N)C(=O)O; Arg(Me2s) = CN=C(NC)NCCC[C@H](N)C(=O)O

Use these answered entries as a reference point.
{"compound": "CN=C(NC)NCCC[C@H](NC(=O)[C@H](CCSC)NC(=O)CNC(=O)[C@@H]1CCCN1C(=O)[C@@H]1CCCN1)C(=O)NCC(=O)N1CCC[C@H]1C(=O)N1CCC[C@H]1C(=O)N1CCC[C@H]1C(=O)O [PGM(SmB221SD)] (H-PPGM[Arg(Me2s)]GPPP-OH; N-terminus and C-terminus assumed)", "Kd": "> 500 µM"}
{"compound": "C[C@H](NC(=O)[C@H](CCCNC(=N)N)NC(=O)CNC(=O)[C@H](CCCNC(=N)N)NC(=O)[C@H](C)NC(=O)[C@H](CCCNC(=N)N)NC(=O)[C@H](C)NC(=O)[C@H](CCCNC(=N)N)NC(=O)[C@H](C)NC(=O)[C@H](CCCNC(=N)N(C)C)NC(=O)CNC(=O)[C@@H](N)[C@@H](C)O)C(=O)N[C@@H](CCCNC(=N)N)C(=O)NCC(=O)N[C@@H](CCC(N)=O)C(=O)N[C@@H](CCC(=O)O)C(=O)O [PIWIL1-R4me2a] (H-TG[Arg(Me2a)]ARARARGRARGQE-OH)", "Kd": "> 400 µM"}
{"compound": "CN=C(NC)NCCC[C@H](NC(=O)CNC(=O)[C@@H]1CCCN1C(=O)[C@@H]1CCCN1C(=O)[C@@H](N)Cc1ccc(O)cc1)C(=O)NCC(=O)NCC(=O)N1CCC[C@H]1C(=O)N1CCC[C@H]1C(=O)N1CCC[C@H]1C(=O)O [PGM(SmB165SD)] (H-YPPG[Arg(Me2s)]GGPPP-OH; N-terminus and C-terminus assumed)", "Kd": "> 500 µM"}

If you can, please state the reported Kd value of CN=C(NC)NCCC[C@H](NC(=O)[C@H](CCSC)NC(=O)CNC(=O)[C@@H]1CCCN1C(=O)[C@@H]1CCCN1)C(=O)N1CCC[C@H]1C(=O)N1CCC[C@H]1C(=O)N1CCC[C@H]1C(=O)N1CCC[C@H]1C(=O)NCC(=O)O [PGM(SmB214SD)] (H-PPGM[Arg(Me2s)]PPPPG-OH; N-terminus and C-terminus assumed) .
> 500 µM

Same thing, different compound: CN=C(NC)NCCC[C@H](NC(=O)CNC(=O)[C@H](CCCNC(=N)N)NC(=O)CNC(=O)CN)C(=O)NCC(=O)N[C@@H](CCCNC(=N)N)C(=O)NCC(=O)O [SmD3RSDMA] (H-GGRG[Arg(Me2s)]GRG-OH)
> 500 µM
